- Tested on: E. coli assay strain Km3
- Type: cell-based
- Particulars: library L8 hits; M9 Xgal colony assay; ratio IND (200 ppb Cs, 24 hrs) / REP (48 hrs)
Reported metric: F. IND = fold induction: induction with 200 ppb Cs at 24 hrs/repression at 48 hrs
One number for each entry.

Examples with answers:
INSERT INTO measurements (molecule, result) VALUES
  ('L8-1A04 (protein, Sulfonylurea responsive repressor) MARLDKSKVINSALELLNEVGIEGLTTRKLAQKLGVEQPTLYWHVKNKRALLDALAIEMMDRHQTHYLPLEGESWQDFLRNNAKSCRNALLSHRDGAKVCLGTRWTEQQYETAENMLAFLTQQGFSLENALYALEAARVFTLGAVLFDQESQVAKEERETPTTDSMPPLLRQAWELKDHQGAEPAFLFGLELIISGLEKQLKRESGS', 6.2),
  ('L8-3F02 (protein, Sulfonylurea responsive repressor) MARLDKSKVINSALELLNEVGIEGLTTRKLAQKLGVEQPTLYWHVKNKRALLDALAIEMMDRHQTHYSPLEGESWQDFLRNNAKSCRRALLSHRDGAKVCLGTRWTEQQYESAENMLAFLCQQGFSLENALYAVSAVRIFTLGAVLFDQESQVAKEERETPTTDSMPPLLRQAWELKDHQGAEPAFLFGLELIIAGLEKQLKRESGS', 3.5);

In the following, a different molecule is considered.
-- ask // lookup F. IND = fold induction: induction with 200 ppb Cs at 24 hrs/repression at 48 hrs for L8-3E05 (protein, Sulfonylurea responsive repressor) MARLDKSKVINSALELLNEVGIEGLTTRKLAQKLGVEQPTLYWHVKNKRALLDALAIEMMDRHQTHYCPLEGESWQDFLRNNAKSLRCALLSHRDGAKVCLGTRWTEQQYESAENMLAFLTQQGFSLENALYALQAVRIFTLGCVLFDQESQVAKEERETPTTDSMPPLLRQAWELKDHQGAEPAFLFGLELIIRGLEKQLKRESGS
-- reply 3.4
